# target under test: human liver GK (GST-hLGK1) (Homo sapiens, UniProt P35557)
# Construct: with a BamHI site added to immediately before the initiation codon
# Sequence (P35557 1-464 isoform P35557-3): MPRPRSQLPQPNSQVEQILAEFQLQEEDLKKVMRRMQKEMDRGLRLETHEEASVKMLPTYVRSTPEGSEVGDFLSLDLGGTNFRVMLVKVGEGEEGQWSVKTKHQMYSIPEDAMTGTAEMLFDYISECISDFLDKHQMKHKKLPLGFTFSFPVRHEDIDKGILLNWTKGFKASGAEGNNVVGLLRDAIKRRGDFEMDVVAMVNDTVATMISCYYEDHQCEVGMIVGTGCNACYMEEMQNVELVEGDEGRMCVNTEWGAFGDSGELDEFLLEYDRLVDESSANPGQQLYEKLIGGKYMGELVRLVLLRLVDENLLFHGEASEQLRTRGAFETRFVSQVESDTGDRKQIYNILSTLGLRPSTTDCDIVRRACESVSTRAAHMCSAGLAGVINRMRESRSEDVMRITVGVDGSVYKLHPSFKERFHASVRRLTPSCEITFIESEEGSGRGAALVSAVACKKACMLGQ
# protocol details: Determination of GK activity value (Mant-ATP to Mant-ADP conversion, capillary electrophoresis)
# measurement context: reaction started with 25 mM D-glucose solution, 37° C., 60 min, concentration at midpoint between maximum activity value and control group activity value
measured metric: EC50 (nM)

CS(=O)(=O)c1ccc(Oc2cc(OC3CCOCC3)c3[nH]c(C4=NCC(CC(N)=O)S4)cc3c2)cn1 (single isomer, unassigned) [Example 32] : 16

a. CC(C)(O)CC1CN=C(c2cc3cc(Oc4ccc(S(C)(=O)=O)cn4)cc(OC4CCOCC4)c3[nH]2)S1 (stereo not shown)
b. CC(C)(O)CC1CN=C(c2cc3cc(Oc4ccc(S(C)(=O)=O)cc4)cc(OC4CCOCC4)c3[nH]2)S1 (stereo not shown)
Query string: Record comparison, field EC50: mark the lower of a and b . Use the label to indicate which entry you chose.
Result string: b
(b: 15 nM, a: 61 nM)
